experiment: AUC (0 to t) in Sprague Dawley rat at 10 mg/kg, ip measured after 24 hrs; assay type: ADME, organism-based; parameters: route intraperitoneal, time 24 hrs, dose 10 mg/kg; conditions: in vivo
EXPERIMENTAL ENDPOINT: AUC(0-t) at 24 h
Express the reported value numerically, then name its unit.

Query string: Entry CC(C)Oc1cc(F)ccc1Nc1ncnc2ccc(-c3ccc(C(=O)N4CCNCC4)cc3)nc12 needs its AUC(0-t) at 24 h filled in; supply it.
Result string: 1660 ng·h/mL

---

assay: AUC (0 to infinity) in Sprague Dawley rat at 10 mg/kg, ip measured after 24 hrs; format: ADME, organism-based; design: route intraperitoneal, dose 10 mg/kg, time 24 hrs; settings: in vivo
EXPERIMENTAL ENDPOINT: AUC(0-inf) (ng·h/mL)
Enter your answer as a number in ng·h/mL; do not include the unit.

Query string: Entry CC(C)Oc1cc(F)ccc1Nc1ncnc2ccc(-c3ccc(C(=O)N4CCNCC4)cc3)nc12 needs its AUC(0-inf) filled in; supply it.
Result string: 1680
